- Tested on: A549
- ASSAY_DETAILS: Anti-proliferation IC50, A549
- Format: cell-based
- PARTICULARS: Homo sapiens, Table 2, compounds of formula II, read-out: Anti-proliferation IC50 A549
Would you mind telling me the reported IC50 of each entry?
Answers are plain numbers, in µM.

• CC[C@H]1OC(=O)[C@H](C)[C@@H](O[C@H]2C[C@@](C)(OC)[C@@H](O)[C@H](C)O2)[C@H](C)[C@@H](O[C@@H]2O[C@H](C)C[C@H](N(C)Cc3ccc(-c4cn(Cc5ccc(-n6cc(C)ccc6=O)cc5)nn4)cc3)[C@H]2O)[C@](C)(O)C[C@@H](C)CN(C)[C@H](C)[C@@H](O)[C@]1(C)O [Compound 11c] = 18.4
• CC[C@@H]1OC(=O)[C@@H](C)[C@H](OC2C[C@@](C)(OC)[C@@H](O)[C@H](C)O2)[C@@H](C)[C@H](O[C@H]2O[C@@H](C)C[C@@H](N(C)Cc3ccc(-c4cn(CCCNC(=O)CCCC[C@H]5CCSS5)nn4)cc3)[C@@H]2O)C(C)(O)C[C@H](C)CN(C)[C@@H](C)[C@H](O)[C@@]1(C)O (stereo partly shown) = 26.9
• CC[C@H]1OC(=O)[C@H](C)[C@@H](O[C@H]2C[C@@](C)(OC)[C@@H](O)[C@H](C)O2)[C@H](C)[C@@H](O[C@@H]2O[C@H](C)C[C@H](N(C)CCC#Cc3ccc(-n4cc(C)ccc4=O)cc3)[C@H]2O)[C@](C)(O)C[C@@H](C)CN(C)[C@H](C)[C@@H](O)[C@]1(C)O [Compound 20b] = 31.2

Note: attention shifts to another entry.
// assay A549, entry CC[C@H]1OC(=O)[C@H](C)[C@@H](O[C@H]2C[C@@](C)(OC)[C@@H](O)[C@H](C)O2)[C@H](C)[C@@H](O[C@@H]2O[C@H](C)C[C@H](N(C)Cc3ccc(-c4cn(CCCCc5ccc(-n6cc(C)ccc6=O)cc5)nn4)cc3)[C@H]2O)[C@](C)(O)C[C@@H](C)CN(C)[C@H](C)[C@@H](O)[C@]1(C)O [Compound 15c] , IC50 value = 5

---

Would you mind telling me the reported pIC50 of each entry?
- ASSAY_DETAILS: Anti-proliferation IC50, MRC-5
- Assay type: cell-based
- PARTICULARS: human, MRC-5 cells; Table 1, compounds of formula I; NI = no inhibition up to 500 μM
Answers are plain numbers, as −log10 of the molar value.

Guide cases for pIC50, answers given:
- CCC1OC(=O)[C@H](C)[C@H](OC2C[C@@](C)(OC)[C@@H](O)[C@H](C)O2)[C@H](C)[C@@H](OC2O[C@H](C)C[C@H](N(C)Cc3ccc(-c4cn(Cc5ccc(-n6cc(C)ccc6=O)cc5)nn4)cc3)[C@H]2O)[C@@](C)(OC)C[C@@H](C)C(=O)[C@H](C)[C@@H](O)[C@]1(C)O (some centres unmarked) [Compound 10c]: 4.91
- CCC1OC(=O)[C@H](C)[C@H](OC2C[C@@](C)(OC)[C@@H](O)[C@H](C)O2)[C@H](C)[C@@H](OC2O[C@H](C)C[C@H](N(C)Cc3cn(CCc4ccc(-n5cc(C)ccc5=O)cc4)nn3)[C@H]2O)[C@@](C)(OC)C[C@@H](C)C(=O)[C@H](C)[C@@H](O)[C@]1(C)O (some centres unmarked) [Compound 12b]: 4.08
- CCC1OC(=O)[C@H](C)[C@H](OC2C[C@@](C)(OC)[C@@H](O)[C@H](C)O2)[C@H](C)[C@@H](OC2O[C@H](C)C[C@H](N(C)Cc3cn(Cc4ccc(-n5cc(C)ccc5=O)cc4)nn3)[C@H]2O)[C@@](C)(OC)C[C@@H](C)C(=O)[C@H](C)[C@@H](O)[C@]1(C)O (some centres unmarked) [Compound 10b]: 3.99

// for each compound in input: emit pIC50
1. CC[C@H]1OC(=O)[C@@H](C)[C@@H](O[C@H]2C[C@@](C)(OC)[C@@H](O)[C@H](C)O2)[C@@H](C)[C@@H](O[C@H]2O[C@@H](C)C[C@@H](N(C)Cc3ccc(-c4cn(CCNC(=O)CCCC[C@H]5CCSS5)nn4)cc3)[C@@H]2O)[C@](C)(OC)C[C@@H](C)C(=O)[C@H](C)[C@H](O)[C@]1(C)O
2. CCC1OC(=O)[C@H](C)[C@H](OC2C[C@@](C)(OC)[C@@H](O)[C@H](C)O2)[C@H](C)[C@@H](OC2O[C@H](C)C[C@H](N(C)CC#Cc3ccc(-n4cc(C)ccc4=O)cc3)[C@H]2O)[C@@](C)(OC)C[C@@H](C)C(=O)[C@H](C)[C@@H](O)[C@]1(C)O (some centres unmarked) [Compound 19a]

1: 4.25; 2: 4.08

---

Would you mind telling me the reported IC50 of each entry?
- Test system: Hep-G2
- ASSAY_DETAILS: Anti-proliferation IC50, Hep-G2
- Type: cell-based
- PARTICULARS: Homo sapiens, HepG2; Table 1, compounds of formula I; NI = no inhibition up to 500 μM; read-out: Hep-G2 (IC50)

• CCC1OC(=O)[C@H](C)[C@H](OC2C[C@@](C)(OC)[C@@H](O)[C@H](C)O2)[C@H](C)[C@@H](OC2O[C@H](C)C[C@H](N(C)CCc3ccc(-n4cc(C)ccc4=O)cc3)[C@H]2O)[C@@](C)(OC)C[C@@H](C)C(=O)[C@H](C)[C@@H](O)[C@]1(C)O (stereo partly shown) [Compound 12a] = > 500 µM

// for each compound in input: emit IC50
1. CCC1OC(=O)[C@H](C)[C@H](OC2C[C@@](C)(OC)[C@@H](O)[C@H](C)O2)[C@H](C)[C@@H](OC2O[C@H](C)C[C@H](N(C)CCCCC#Cc3ccc(-n4cc(C)ccc4=O)cc3)[C@H]2O)[C@@](C)(OC)C[C@@H](C)C(=O)[C@H](C)[C@@H](O)[C@]1(C)O (stereo partly shown) [Compound 19d]
2. CCC1OC(=O)[C@H](C)[C@H](OC2C[C@@](C)(OC)[C@@H](O)[C@H](C)O2)[C@H](C)[C@@H](OC2O[C@H](C)C[C@H](N(C)CCC#Cc3ccc(-n4cc(C)ccc4=O)cc3)[C@H]2O)[C@@](C)(OC)C[C@@H](C)C(=O)[C@H](C)[C@@H](O)[C@]1(C)O (stereo partly shown) [Compound 19b]
3. CCC1OC(=O)[C@H](C)[C@H](OC2C[C@@](C)(OC)[C@@H](O)[C@H](C)O2)[C@H](C)[C@@H](OC2O[C@H](C)C[C@H](N(C)CCCCCC#Cc3ccc(-n4cc(C)ccc4=O)cc3)[C@H]2O)[C@@](C)(OC)C[C@@H](C)C(=O)[C@H](C)[C@@H](O)[C@]1(C)O (stereo partly shown) [Compound 19e]

32 µM
60.9 µM
23.7 µM

---

- System: VERO
- ASSAY_DETAILS: Anti-proliferation IC50, VERO
- Format: cell-based
- PARTICULARS: Chlorocebus sabaeus, Table 1, compounds of formula I, NI = no inhibition up to 500 μM, read-out: VERO (IC50)
Would you mind telling me the reported IC50 of each entry?
Please don't drop the unit; write it after the number.

Guide cases for IC50, answers given:
* CCC1OC(=O)[C@H](C)[C@H](OC2C[C@@](C)(OC)[C@@H](O)[C@H](C)O2)[C@H](C)[C@@H](OC2O[C@H](C)C[C@H](N(C)Cc3ccc(-c4cn(CCCCc5ccc(-n6cc(C)ccc6=O)cc5)nn4)cc3)[C@H]2O)[C@@](C)(OC)C[C@@H](C)C(=O)[C@H](C)[C@@H](O)[C@]1(C)O (stereo partly drawn) [Compound 14c] | 12.4 µM
* CCC1OC(=O)[C@H](C)[C@H](OC2C[C@@](C)(OC)[C@@H](O)[C@H](C)O2)[C@H](C)[C@@H](OC2O[C@H](C)C[C@H](N(C)Cc3ccc(-c4cn(Cc5ccc(-n6cc(C)ccc6=O)cc5)nn4)cc3)[C@H]2O)[C@@](C)(OC)C[C@@H](C)C(=O)[C@H](C)[C@@H](O)[C@]1(C)O (stereo partly drawn) [Compound 10c] | 5.1 µM

Note: attention shifts to another entry.
Record `CC[C@H]1OC(=O)[C@@H](C)[C@@H](O[C@H]2C[C@@](C)(OC)[C@@H](O)[C@H](C)O2)[C@@H](C)[C@@H](O[C@H]2O[C@@H](C)C[C@@H](N(C)Cc3ccc(-c4cn(CCCNC(=O)CCCC[C@H]5CCSS5)nn4)cc3)[C@@H]2O)[C@](C)(OC)C[C@@H](C)C(=O)[C@H](C)[C@H](O)[C@]1(C)O` , field IC50: 58.1 µM

---

- ASSAY_DETAILS: Anti-proliferation IC50, MRC-5
- Format: cell-based
- PARTICULARS: human, MRC-5 cells; Table 1, compounds of formula I; NI = no inhibition up to 500 μM
pIC50: −log10 of the molar value.
MEASURED_ENDPOINT: pIC50

Guide cases for pIC50, answers given:
- O=C(O)CCCCC1CCSS1 (stereo not drawn) [Lipoic acid (ALA), Lipoic acid, reference compound]: < 3.30
- O=C(O)/C=C/C=C/c1ccc2c(c1)OCO2 [Piperic acid (PPA), Piperic acid, reference compound]: < 3.30

Note: attention shifts to another entry.
Record CCC1OC(=O)[C@H](C)[C@H](OC2C[C@@](C)(OC)[C@@H](O)[C@H](C)O2)[C@H](C)[C@@H](OC2O[C@H](C)C[C@H](N(C)Cc3ccc(-n4cc(C)ccc4=O)cc3)[C@H]2O)[C@@](C)(OC)C[C@@H](C)C(=O)[C@H](C)[C@@H](O)[C@]1(C)O (stereo partly drawn) [Compound 10a] , field pIC50: < 3.30
